# credit: ChEMBL document CHEMBL1157568

Biological target: 5-hydroxytryptamine receptor 3A (Homo sapiens)
Sequence (P46098 whole entry): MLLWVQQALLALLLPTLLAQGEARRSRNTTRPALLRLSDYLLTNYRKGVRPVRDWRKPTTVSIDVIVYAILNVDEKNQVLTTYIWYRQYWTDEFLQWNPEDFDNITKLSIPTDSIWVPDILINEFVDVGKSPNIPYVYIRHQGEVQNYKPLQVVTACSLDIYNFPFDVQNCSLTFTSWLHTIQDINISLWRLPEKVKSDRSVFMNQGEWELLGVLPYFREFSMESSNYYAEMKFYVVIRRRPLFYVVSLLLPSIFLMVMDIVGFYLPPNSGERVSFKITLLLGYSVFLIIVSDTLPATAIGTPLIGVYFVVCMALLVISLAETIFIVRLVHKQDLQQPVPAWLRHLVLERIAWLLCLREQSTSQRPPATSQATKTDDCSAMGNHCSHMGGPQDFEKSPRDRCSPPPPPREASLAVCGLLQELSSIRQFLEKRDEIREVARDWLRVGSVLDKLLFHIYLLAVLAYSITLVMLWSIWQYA
Test: Binding affinity to human 5HT3A receptor in HEK293 cells assessed as cell labeling by confocal microscopy
Quantity kind: Ki (nM)
Numbers only; they are read as nM.

Qu. Give the reported Ki for Cc1cc(C)n2c1C=C1C=CC(NCC(=O)NCCCn3nc(C(=O)N[C@H]4C[C@H]5CCC[C@@H](C4)N5C)c4ccccc43)=[N+]1[B-]2(F)F (system: 5-hydroxytryptamine receptor 3A (Homo sapiens)).
Ans. 2.8
